// reported IC50 per item
Target: human JAK2 (Homo sapiens (Human))
Sequence (O60674 815-1132): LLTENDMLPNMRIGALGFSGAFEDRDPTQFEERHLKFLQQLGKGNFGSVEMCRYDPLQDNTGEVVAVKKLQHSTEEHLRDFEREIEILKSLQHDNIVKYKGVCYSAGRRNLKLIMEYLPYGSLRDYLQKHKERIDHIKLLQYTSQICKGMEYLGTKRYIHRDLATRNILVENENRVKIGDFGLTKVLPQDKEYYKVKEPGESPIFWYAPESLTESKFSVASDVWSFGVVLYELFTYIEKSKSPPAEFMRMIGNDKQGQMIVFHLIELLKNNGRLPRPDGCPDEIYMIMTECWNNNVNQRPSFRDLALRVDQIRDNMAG
Settings: read-out: JAK2 IC50
MEASURE: IC50

> print(dat)
                                   compound                        test.system  reported
1  CN(c1ccccc1CNc1cccn2nc(Nc3ccc4c(c3)CCC(N3CCOCC3)CC4)nc12)S(C)(=O)=O (stereo not drawn) [Example 200]  human JAK2 (Homo sapiens (Human))    134 nM
2  CCOc1ccc(C(F)(F)F)cc1-c1cccn2nc(Nc3ccc4c(c3)CCN(CC(=O)N(C)C)CC4)nc12 [Example 321]  human JAK2 (Homo sapiens (Human))    223 nM
3  COc1ccc(C(F)(F)F)cc1-c1cccn2nc(Nc3ccc4c(c3)CCNC4)nc12 [Example 337]  human JAK2 (Homo sapiens (Human))   41.9 nM
4  CS(=O)(=O)c1ccc(-c2cccn3nc(Nc4ccc(N5CCCCC5)cc4)nc23)cc1 [Example 18]  human JAK2 (Homo sapiens (Human))    0.6 nM
5  CP(C)(=O)c1ccc(-c2cccn3nc(N(CCS(C)(=O)=O)c4cccc(C5CCN(CCS(C)(=O)=O)CC5)c4)nc23)cc1 [Example 199]  human JAK2 (Homo sapiens (Human))   95.8 nM
6  CN1CCN(c2ccc(Nc3nc4c(CCc5ccccc5N(C)S(C)(=O)=O)cccn4n3)cc2)CC1 [Example 194]  human JAK2 (Homo sapiens (Human))    218 nM

* * *

Target: UniProt:O60674
Conditions: read-out: JAK2 IC50
Ranges used to classify IC50: A: < 20 nM; B: ≥ 20 nM and < 300 nM; C: ≥ 300 nM

> print(dat)
                                    molecule     test.system  assigned.label
 1  CN(C)C(=O)CN1CCc2ccc(Nc3nc4c(-c5cc(F)ccc5OCC(F)F)cccn4n3)cc2CC1  UniProt:O60674               C
 2  CN1CCN(c2ccc(Nc3nc4c(Nc5ccccc5S(C)(=O)=O)cccn4n3)cc2)CC1  UniProt:O60674               A
 3  CN(C)C(=O)N1CCc2ccc(Nc3nc4c(-c5cc(Cl)ccc5OCC(F)F)cccn4n3)cc2CC1  UniProt:O60674               B
 4  CN(c1cccc(-c2cccn3nc(Nc4ccc(OCCN5CCCC5)cc4)nc23)c1)S(C)(=O)=O  UniProt:O60674               B
 5  CN(C)C(=O)CN1CCc2ccc(Nc3nc4c(-c5cc(C(F)(F)F)ccc5OCC(F)F)cccn4n3)cc2CC1  UniProt:O60674               C
 6  CN1CCN(c2ccc(Nc3nc4c(-c5cccc(CN(C)S(C)(=O)=O)c5)cccn4n3)cc2)CC1  UniProt:O60674               A
 7  CN1CCN(Cc2ccc(Nc3nc4c(-c5ccc(S(C)(=O)=O)cc5)cccn4n3)cc2)CC1  UniProt:O60674               A
 8  CS(=O)(=O)c1ccc(Nc2nc3c(-c4ccc(S(C)(=O)=O)cc4)cccn3n2)cc1  UniProt:O60674               A
 9  CN1CCN(c2ccc(Nc3nc4c(NCC5CCN(C(=O)OC(C)(C)C)C5)cccn4n3)cc2)CC1 (stereo not shown)  UniProt:O60674               B
10  CCN1CCP(=O)(c2ccc(Nc3nc4c(-c5ccc(S(C)(=O)=O)cc5)cccn4n3)cc2)CC1  UniProt:O60674               A
11  CS(=O)(=O)c1ccc(-c2cccn3nc(NCCc4ccccn4)nc23)cc1  UniProt:O60674               C
12  CCN1CCN(c2cccc(Nc3nc4c(-c5ccc(P(C)(C)=O)cc5)cccn4n3)c2)C(=O)C1  UniProt:O60674               A
13  CN1CCN(c2cccc(Nc3nc4c(-c5cccc(S(C)(=O)=O)c5)cccn4n3)c2)CC1  UniProt:O60674               A
14  CN1CCN(c2ccc(NC(=O)Nc3nc4cccc(-c5ccc(S(C)(=O)=O)cc5)n4n3)cc2)CC1  UniProt:O60674               C
15  COc1cccc(CNc2cccn3nc(Nc4cccc(N5CCN(C)CC5)c4)nc23)c1  UniProt:O60674               C
16  CN1CCN(c2ccc(Nc3nc4c(OCc5ccccc5N(C)S(C)(=O)=O)cccn4n3)cc2)CC1  UniProt:O60674               A
17  CN(Cc1ccccc1Nc1cccn2nc(Nc3ccc(OCCN4CCCC4)cc3)nc12)S(C)(=O)=O  UniProt:O60674               B
18  CS(=O)(=O)c1ccc(-c2cccn3nc(Nc4cccc(CN5CCS(=O)(=O)CC5)c4)nc23)cc1  UniProt:O60674               A
19  CN1CCN(c2cccc(Nc3nc4c(NCc5cccnc5N(C)S(C)(=O)=O)cccn4n3)c2)CC1  UniProt:O60674               B
20  CN1CCN(c2cccc(Nc3nc4c(Nc5cccnc5N(C)S(C)(=O)=O)cccn4n3)c2)CC1  UniProt:O60674               B
21  COc1ccc(Nc2nc3c(NC4CCN(S(C)(=O)=O)CC4)cccn3n2)cc1  UniProt:O60674               C
22  CN(c1ncccc1CNc1cccn2nc(Nc3ccc(N4CCN(CCO)CC4)cc3)nc12)S(C)(=O)=O  UniProt:O60674               B
23  COc1ccc(Nc2nc3cccc(-c4ccc(S(C)(=O)=O)cc4)n3n2)cc1  UniProt:O60674               A
24   COc1ccc(Nc2nc3c(-c4cn[nH]c4)cccn3n2)cc1  UniProt:O60674               B
25  CN1CCN(c2cccc(N(c3cccc(N4CCN(C)CC4)c3)c3nc4c(-c5ccc(S(C)(=O)=O)cc5)cc(F)cn4n3)c2)CC1  UniProt:O60674               C
26  CS(=O)(=O)c1ccccc1CNc1cccn2nc(Nc3ccc(OCCN4CCCC4)cc3)nc12  UniProt:O60674               A
27  COc1cccc(CNc2cccn3nc(Nc4ccc(OC)nc4)nc23)c1  UniProt:O60674               C
28  COc1ccc(Nc2nc3c(Nc4ccccc4S(C)(=O)=O)cccn3n2)cc1  UniProt:O60674               A
29  COc1ncccc1-c1cccn2nc(Nc3ccc(C4CCNCC4)cc3)nc12  UniProt:O60674               C
30  COc1ccc(CNc2cccn3nc(Nc4cccc(N5CCN(C)CC5)c4)nc23)cc1  UniProt:O60674               C

* * *

Target: human FAK (Homo sapiens (Human), UniProt Q05397)
Sequence (Q05397 whole entry): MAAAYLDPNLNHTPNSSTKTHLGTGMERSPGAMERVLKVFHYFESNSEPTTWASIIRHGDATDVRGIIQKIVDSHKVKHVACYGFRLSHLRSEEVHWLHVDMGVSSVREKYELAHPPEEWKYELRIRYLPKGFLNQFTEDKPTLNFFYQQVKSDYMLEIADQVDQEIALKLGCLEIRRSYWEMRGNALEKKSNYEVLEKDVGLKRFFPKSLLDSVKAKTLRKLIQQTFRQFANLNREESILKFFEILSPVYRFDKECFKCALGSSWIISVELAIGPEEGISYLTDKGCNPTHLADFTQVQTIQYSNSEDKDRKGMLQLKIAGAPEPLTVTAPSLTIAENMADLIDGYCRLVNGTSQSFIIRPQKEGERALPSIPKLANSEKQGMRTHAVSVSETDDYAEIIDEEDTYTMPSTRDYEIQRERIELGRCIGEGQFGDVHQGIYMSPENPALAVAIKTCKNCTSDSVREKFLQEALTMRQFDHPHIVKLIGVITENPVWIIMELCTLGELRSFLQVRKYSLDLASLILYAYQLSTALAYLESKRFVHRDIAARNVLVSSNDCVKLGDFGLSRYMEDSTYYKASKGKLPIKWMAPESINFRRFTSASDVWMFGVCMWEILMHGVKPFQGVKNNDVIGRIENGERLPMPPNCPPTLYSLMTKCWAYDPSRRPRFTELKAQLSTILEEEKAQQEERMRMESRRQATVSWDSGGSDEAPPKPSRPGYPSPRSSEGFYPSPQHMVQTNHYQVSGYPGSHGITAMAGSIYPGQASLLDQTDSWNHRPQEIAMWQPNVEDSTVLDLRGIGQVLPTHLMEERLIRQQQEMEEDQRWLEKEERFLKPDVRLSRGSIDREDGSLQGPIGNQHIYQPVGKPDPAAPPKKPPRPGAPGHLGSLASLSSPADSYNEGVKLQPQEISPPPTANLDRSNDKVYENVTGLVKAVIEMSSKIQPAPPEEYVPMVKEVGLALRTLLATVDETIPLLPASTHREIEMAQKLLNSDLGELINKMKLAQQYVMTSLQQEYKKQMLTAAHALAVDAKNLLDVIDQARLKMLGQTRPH
Settings: read-out: FAK IC50
// returns no (0) unless IC50 is strictly below 3000 nM, in which case yes (1)

> print(dat)
                             chemical.string  assigned.label
 1  COc1cccc(-c2cccn3nc(Nc4ccc5c(c4)CNC5)nc23)c1         yes (1)
 2  CN1CCN(Cc2ccc(Nc3nc4c(-c5ccc(S(C)(=O)=O)cc5)cccn4n3)cc2)CC1         yes (1)
 3      COc1ccccc1CNc1cccn2nc(Nc3cccnc3)nc12          no (0)
 4  CC(C)S(=O)(=O)c1ccc(-c2cccn3nc(Nc4ccc(N5CCN(C)CC5)cc4)nc23)cc1         yes (1)
 5  COc1ccccc1-c1cccn2nc(Nc3ccc4c(c3)CCN(CC(=O)N(C)C)CC4)nc12          no (0)
 6  CCCOc1ccc(Cl)cc1-c1cccn2nc(Nc3ccc4c(c3)CCN(CC(=O)N(C)C)CC4)nc12         yes (1)
 7  COc1cc(C(F)(F)F)ccc1-c1cccc2nc(Nc3ccc4c(c3)CCN(CCS(C)(=O)=O)CC4)nn12         yes (1)
 8  CCn1cc(Nc2nc3c(-c4ccc(C(F)(F)F)cc4)cccn3n2)cn1          no (0)
 9  FC1(F)Oc2cccc(-c3cccn4nc(Nc5ccc6c(c5)CCNCC6)nc34)c2O1          no (0)
10  CS(=O)(=O)c1ccc(-c2cccn3nc(Nc4cccc(N5CCOCC5)c4)nc23)cc1         yes (1)

* * *

Target: human JAK2 (Homo sapiens (Human))
Conditions: read-out: JAK2 IC50
pIC50: −log10 of the molar value.
MEASURE: pIC50

> print(dat)
                            chemical.string                        test.system  measure  reported
1  CN1CCN(c2ccc(Nc3nc4c(NCc5cccnc5N(C)S(C)(=O)=O)cccn4n3)cc2)CC1  human JAK2 (Homo sapiens (Human))    pIC50      7.68
2  CS(=O)(=O)c1ccc(-c2cccn3nc(Nc4ccc(OS(=O)(=O)C(F)(F)C(F)(F)C(F)(F)C(F)(F)F)cc4)nc23)cc1  human JAK2 (Homo sapiens (Human))    pIC50      6.97
3  CN1CCN(c2cccc(Nc3nc4c(Nc5cccc(S(C)(=O)=O)c5)cccn4n3)c2)CC1  human JAK2 (Homo sapiens (Human))    pIC50      5.88
4  COc1ccccc1-c1cccn2nc(Nc3ccc4c(c3)CCN(CC(=O)N(C)C)CC4)nc12  human JAK2 (Homo sapiens (Human))    pIC50      7.41
